Ref: patent US6448255B1

Overview of reported melting point across a group of compounds:

Solved cases below.
>  <Compound>
C[C@@H]1CN2C(=O)c3ccccc3[C@@](O)(c3ccc(F)cc3)C2=N1

>  <melting point>
229 to 232 °C

$$$$
>  <Compound>
O=C1c2ccccc2C(O)(c2ccccc2)C2=NCCN12 (centres unmarked)

>  <melting point>
263 to 265 °C

$$$$
>  <Compound>
O=C1c2ccccc2C(O)(c2ccc(Cl)cc2)C2=NCCN12 (centres unmarked)

>  <melting point>
235 to 237 °C

$$$$

Next, consider the following compound.
*Q* # get_value(readout='melting point', item= CC1(C)CN2C(=O)c3ncccc3C(O)(c3ccc(Cl)cc3)C2=N1 (centres unmarked) )
*A* 257 to 260 °C

* * *

- System: blood serum HDL cholesterol
- Protocol Notes: determination of HDL cholesterol in serum of cholesterol/cholic acid-fed rats
- Format: in vivo, Male Sprague-Dawley rats
- Test Parameters: Dose 100 mg/kg/day mixed in diet, 8 days; rats fed chow with 0.25% cholic acid and 1.0% cholesterol; serum HDL cholesterol by FPLC
Assay Readout: HDL Cholesterol Level Increase (%)
Reply numerically in %, unit not repeated.

Answered examples (5):
>  <Molecule>
CC1(C)CN2C(=O)c3ccccc3C(O)(c3ccccc3)C2=N1 (stereo not shown) [Example 1]

>  <HDL Cholesterol Level Increase (%)>
55

$$$$
>  <Molecule>
C[C@@H]1CN2C(=O)c3ccccc3[C@@](O)(c3ccc(F)cc3)C2=N1 [Example 5]

>  <HDL Cholesterol Level Increase (%)>
105

$$$$
>  <Molecule>
O=C1c2ccccc2C(O)(c2ccc(F)cc2)C2=NC3CCCCC3N12 (stereo not shown) [Example 4]

>  <HDL Cholesterol Level Increase (%)>
21

$$$$
>  <Molecule>
O=C1c2ccccc2C(O)(c2ccc(F)cc2)C2=NCCCN12 (stereo not shown) [Example 2]

>  <HDL Cholesterol Level Increase (%)>
22

$$$$
>  <Molecule>
CC1(C)CN2C(=O)c3ccccc3C(O)(c3ccc(F)cc3)C2=N1 (stereo not shown) [Example 3]

>  <HDL Cholesterol Level Increase (%)>
90

$$$$

*Q* Which HDL Cholesterol Level Increase (%) value belongs to C[C@H]1CN2C(=O)c3ccccc3[C@@](O)(c3ccc(F)cc3)C2=N1 [Example 6] ?
*A* 38

*Q* Continue with CC1(C)CN2C(=O)c3ncccc3C(O)(c3ccc(Cl)cc3)C2=N1 (stereo not shown) [Example 7]
*A* 49

* * *

This listing pairs compounds with measured melting point.

Examples with answers:
>  <Compound>
O=C1c2ccccc2C(O)(c2ccc(Cl)cc2)C2=NCCCN12 (stereo not shown) [Example 8]

>  <melting point>
128 to 130 °C

$$$$
>  <Compound>
O=C1c2ccccc2C(O)(c2ccc(F)cc2)C2=NCCCN12 (stereo not shown) [Example 2]

>  <melting point>
126 to 128 °C

$$$$
>  <Compound>
CC1(C)CN2C(=O)c3ccccc3C(O)(c3ccccc3)C2=N1 (stereo not shown) [Example 1]

>  <melting point>
186 to 188 °C

$$$$
>  <Compound>
CC1(C)CN2C(=O)c3ccccc3C(O)(c3ccc(F)cc3)C2=N1 (stereo not shown) [Example 3]

>  <melting point>
168 to 170 °C

$$$$
>  <Compound>
CC1(C)CN2C(=O)c3ccccc3C(O)(c3ccc(Cl)cc3)C2=N1 (stereo not shown) [Example 10]

>  <melting point>
181 to 183 °C

$$$$

*Q* Which measured melting point value corresponds to O=C1c2ccccc2C(O)(c2ccc(F)cc2)C2=NC3CCCCC3N12 (stereo not shown) [Example 4] ?
*A* 203 to 205 °C

*Q* Queued: O=C1c2ccccc2C(O)(c2ccc(Br)cc2)C2=NCCN12 (stereo not shown) [Example 13]
*A* 212 to 215 °C
